target: hNav1.8 (Homo sapiens, UniProt Q9Y5Y9); construct: expressed in transfected cells; host or cells: CHO; assay: Nav1.8 manual patch clamp test; type: cell-based; details: CHO cells stably expressing human Nav1.8; whole-cell patch clamp, half-inactivated state; read-out: Inhibitory activity (IC50) against hNav1.8
Sequence (Q9Y5Y9 whole entry): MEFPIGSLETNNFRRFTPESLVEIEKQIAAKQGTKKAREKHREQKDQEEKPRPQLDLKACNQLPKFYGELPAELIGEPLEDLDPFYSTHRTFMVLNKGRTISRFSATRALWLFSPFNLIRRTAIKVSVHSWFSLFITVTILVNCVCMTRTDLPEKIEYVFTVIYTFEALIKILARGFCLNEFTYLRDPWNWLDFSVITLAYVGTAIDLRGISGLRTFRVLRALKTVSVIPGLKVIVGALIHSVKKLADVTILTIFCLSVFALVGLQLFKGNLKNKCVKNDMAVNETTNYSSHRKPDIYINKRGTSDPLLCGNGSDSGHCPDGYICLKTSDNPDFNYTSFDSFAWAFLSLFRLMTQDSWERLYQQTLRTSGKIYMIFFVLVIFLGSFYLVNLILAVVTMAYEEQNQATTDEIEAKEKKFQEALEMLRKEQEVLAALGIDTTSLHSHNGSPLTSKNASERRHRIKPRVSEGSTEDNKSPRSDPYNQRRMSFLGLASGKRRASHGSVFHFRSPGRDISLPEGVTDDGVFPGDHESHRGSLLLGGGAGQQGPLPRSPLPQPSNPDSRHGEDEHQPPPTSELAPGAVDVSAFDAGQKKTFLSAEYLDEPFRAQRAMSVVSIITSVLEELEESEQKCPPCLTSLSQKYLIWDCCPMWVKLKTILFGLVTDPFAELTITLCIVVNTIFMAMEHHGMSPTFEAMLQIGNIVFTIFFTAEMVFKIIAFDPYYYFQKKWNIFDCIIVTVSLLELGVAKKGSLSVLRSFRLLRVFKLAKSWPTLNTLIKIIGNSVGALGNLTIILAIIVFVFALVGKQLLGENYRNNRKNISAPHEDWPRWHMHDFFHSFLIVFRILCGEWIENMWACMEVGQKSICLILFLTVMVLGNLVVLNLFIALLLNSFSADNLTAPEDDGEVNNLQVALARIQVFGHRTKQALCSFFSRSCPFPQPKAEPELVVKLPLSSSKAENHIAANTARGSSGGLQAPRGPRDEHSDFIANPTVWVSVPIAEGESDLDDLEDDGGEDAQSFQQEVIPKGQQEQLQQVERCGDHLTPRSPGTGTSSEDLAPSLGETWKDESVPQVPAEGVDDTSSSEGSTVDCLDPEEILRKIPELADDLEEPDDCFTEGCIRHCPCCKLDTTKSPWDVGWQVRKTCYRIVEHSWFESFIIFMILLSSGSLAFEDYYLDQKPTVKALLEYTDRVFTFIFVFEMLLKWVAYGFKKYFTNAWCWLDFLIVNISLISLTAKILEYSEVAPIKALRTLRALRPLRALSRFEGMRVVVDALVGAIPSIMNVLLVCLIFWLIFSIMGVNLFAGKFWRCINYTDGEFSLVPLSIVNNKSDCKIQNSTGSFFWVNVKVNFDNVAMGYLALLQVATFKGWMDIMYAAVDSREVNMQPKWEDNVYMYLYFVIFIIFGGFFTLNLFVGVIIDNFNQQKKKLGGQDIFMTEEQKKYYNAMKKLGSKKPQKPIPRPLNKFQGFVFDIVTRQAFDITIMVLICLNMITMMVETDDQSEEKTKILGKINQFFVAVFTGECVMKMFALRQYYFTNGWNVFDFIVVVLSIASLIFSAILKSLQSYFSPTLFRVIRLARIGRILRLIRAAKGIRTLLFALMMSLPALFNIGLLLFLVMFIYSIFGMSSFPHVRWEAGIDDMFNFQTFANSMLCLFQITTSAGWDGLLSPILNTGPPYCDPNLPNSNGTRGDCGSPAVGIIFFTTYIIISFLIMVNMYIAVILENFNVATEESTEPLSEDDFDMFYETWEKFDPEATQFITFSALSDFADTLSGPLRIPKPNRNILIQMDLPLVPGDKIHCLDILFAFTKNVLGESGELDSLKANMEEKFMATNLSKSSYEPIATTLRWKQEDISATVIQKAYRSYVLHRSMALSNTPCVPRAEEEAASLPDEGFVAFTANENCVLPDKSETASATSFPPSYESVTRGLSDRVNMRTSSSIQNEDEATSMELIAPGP
measured-metric: IC50

molecule="COc1c(C2C(C(=O)Nc3cc[nH]c(=O)c3)SC(C)(C(F)(F)F)C2C)ccc(F)c1F (stereo not drawn) [Mixture of compounds 36-2a and 36-2b]" value_reported="< 0.1 nM"
molecule=COc1c([C@H]2[C@H](C(=O)Nc3ccc(F)c(C(N)=O)c3)S[C@@](C)(C(F)(F)F)[C@H]2C)ccc(F)c1F value_reported="< 0.1 nM"
molecule=COc1c([C@H]2[C@H](C(=O)Nc3ccnc(S(N)(=O)=O)c3)S[C@@](C)(C(F)(F)F)[C@H]2C)ccc(F)c1F value_reported="< 0.1 nM"
molecule=C[C@H]1[C@@H](c2ccc(F)c3c2CCC3)[C@H](C(=O)Nc2ccc(F)c(S(N)(=O)=O)c2)S[C@@]1(C)C(F)(F)F value_reported="< 0.1 nM"
molecule="CC1C(c2ccc(F)c3c2CCC3)C(C(=O)Nc2cccc(C(N)=O)c2)SC1(C)C(F)(F)F (stereo not drawn) [Mixture of compounds 37-1a and 37-1b]" value_reported="< 1 nM"
molecule=COc1c([C@H]2[C@H](C(=O)Nc3ccc(F)c(S(N)(=O)=O)c3)S[C@@](C)(C(F)(F)F)[C@H]2C)ccc(F)c1F value_reported="< 0.1 nM"
molecule="COc1c(C2C(C(=O)Nc3cnc(CO)nc3)SC(C)(C(F)(F)F)C2C)ccc(F)c1F (stereo not drawn) [Mixture of compounds 19-2a and 19-2b]" value_reported="< 1 nM"
molecule=COc1c([C@@H]2C[C@](C)(C(F)(F)F)S[C@H]2C(=O)Nc2ccc(F)c(S(N)(=O)=O)c2)ccc(F)c1F value_reported="< 0.1 nM"
molecule="COc1c(C2C(C(=O)Nc3ccnc(OCC(O)CO)c3)SC(C)(C(F)(F)F)C2C)ccc(F)c1F (mixture of isomers) [Mixture of compounds 33-1a and 33-1b]" value_reported="< 1 nM"
molecule="COc1c(C2C(C(=O)Nc3ccc(F)c(S(C)(=O)=O)c3)SC(C)(C(F)(F)F)C2C)ccc(F)c1F (stereo not drawn) [Mixture of compounds 26-1a and 26-1b]" value_reported="< 1 nM"
molecule="COc1c(C2C(C(=O)Nc3ccc(CO)nc3)SC(C)(C(F)(F)F)C2C)ccc(F)c1F (stereo not drawn) [Mixture of compounds 18-2a and 18-2b]" value_reported="< 1 nM"
molecule=COc1c([C@H]2[C@H](C(=O)Nc3ccnc(S(C)(=O)=O)c3)S[C@@](C)(C(F)(F)F)[C@H]2C)ccc(F)c1F value_reported="< 0.1 nM"

###

target: CYP2D6 (Homo sapiens, UniProt P10635); construct: co-incubated with human liver microsomes and test compounds; from tissue; host or cells: human liver microsomes; test: CYP450 enzyme inhibition test (human liver microsomes); assay type: in vitro ADME; details: read-out: IC50 against CYP2D6
Sequence (P10635 whole entry): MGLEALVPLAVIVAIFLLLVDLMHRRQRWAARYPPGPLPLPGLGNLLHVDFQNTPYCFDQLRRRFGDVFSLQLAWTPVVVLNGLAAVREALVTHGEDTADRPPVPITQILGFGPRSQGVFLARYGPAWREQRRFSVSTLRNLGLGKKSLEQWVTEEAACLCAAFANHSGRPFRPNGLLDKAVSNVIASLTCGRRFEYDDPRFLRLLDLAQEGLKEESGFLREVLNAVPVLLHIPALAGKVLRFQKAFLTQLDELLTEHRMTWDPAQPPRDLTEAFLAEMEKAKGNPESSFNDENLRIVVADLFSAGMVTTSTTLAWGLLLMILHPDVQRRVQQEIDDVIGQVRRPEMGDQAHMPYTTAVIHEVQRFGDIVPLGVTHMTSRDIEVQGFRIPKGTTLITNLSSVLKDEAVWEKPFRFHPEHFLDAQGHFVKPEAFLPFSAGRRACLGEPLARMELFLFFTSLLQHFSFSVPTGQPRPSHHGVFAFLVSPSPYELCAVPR
measured-metric: IC50

record_smiles=COc1c([C@H]2[C@H](C(=O)Nc3ccnc(P(C)(C)=O)c3)S[C@@](C)(C(F)(F)F)[C@H]2C)ccc(F)c1F value_reported="> 30 µM"

Where do the numbers come from? From patent US20260216157A1.
